Biological target: STING (Homo sapiens, UniProt Q86WV6, G230A/H232R/R293Q/R71H)
Sequence (Q86WV6 whole entry R71H/G230A/H232R/R293Q): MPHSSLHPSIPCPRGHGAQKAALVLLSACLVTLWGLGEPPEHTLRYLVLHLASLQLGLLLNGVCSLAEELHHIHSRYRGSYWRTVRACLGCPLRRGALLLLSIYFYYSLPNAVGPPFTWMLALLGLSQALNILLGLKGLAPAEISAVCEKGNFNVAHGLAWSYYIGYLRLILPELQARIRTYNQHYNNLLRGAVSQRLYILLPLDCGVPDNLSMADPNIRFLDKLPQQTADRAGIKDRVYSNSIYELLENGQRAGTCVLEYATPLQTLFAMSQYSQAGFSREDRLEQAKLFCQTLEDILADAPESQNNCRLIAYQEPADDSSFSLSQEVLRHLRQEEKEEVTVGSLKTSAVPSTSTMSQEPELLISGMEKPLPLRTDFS
Experiment: STING reporter assay: THP1-Dual KO-IFNAR2 cells stimulated with 2′3′cGAMP, luciferase reporter activity
Type: cell-based
Conditions: 15 μM 2′3′cGAMP, 24h, numeric bounds
pEC50: −log10 of the molar value.
Readout name: pEC50

Asked: Provide STING (Homo sapiens, UniProt Q86WV6, G230A/H232R/R293Q/R71H) pEC50 reading for "CN(C(=O)Nc1ccc2cc[nH]c2c1)c1ccc(C(F)(F)F)cc1" .
Given back: < 4.17

Asked: Provide STING (Homo sapiens, UniProt Q86WV6, G230A/H232R/R293Q/R71H) pEC50 reading for CC(CNC(=O)Nc1ccc2[nH]ccc2c1)c1ccccc1 (centres unmarked) .
Given back: < 4.52

Asked: Provide STING (Homo sapiens, UniProt Q86WV6, G230A/H232R/R293Q/R71H) pEC50 reading for "CC(F)(F)c1ccnc(Nc2ccc3cc[nH]c3c2)c1" .
Given back: < 4.52

Asked: Provide STING (Homo sapiens, UniProt Q86WV6, G230A/H232R/R293Q/R71H) pEC50 reading for "Cc1ccccc1NC(=O)Nc1ccc2cc[nH]c2c1" .
Given back: < 4.52

Asked: Provide STING (Homo sapiens, UniProt Q86WV6, G230A/H232R/R293Q/R71H) pEC50 reading for "O=C(NCCSCc1c(Cl)cccc1Cl)Nc1ccc2[nH]ccc2c1" .
Given back: < 4.52

Asked: Provide STING (Homo sapiens, UniProt Q86WV6, G230A/H232R/R293Q/R71H) pEC50 reading for "N#Cc1c[nH]c2ccc(NC(=O)Nc3ccc(C(F)(F)F)cc3)cc12" .
Given back: < 4.00

Asked: Provide STING (Homo sapiens, UniProt Q86WV6, G230A/H232R/R293Q/R71H) pEC50 reading for "CC1(C)Oc2ccc(Nc3ccc4cc[nH]c4c3)nc2NC1=O" .
Given back: < 4.52

Asked: Provide STING (Homo sapiens, UniProt Q86WV6, G230A/H232R/R293Q/R71H) pEC50 reading for "CCc1ccnc(Nc2ccc3cc[nH]c3c2)c1" .
Given back: < 4.52

Asked: Provide STING (Homo sapiens, UniProt Q86WV6, G230A/H232R/R293Q/R71H) pEC50 reading for "Cc1cccc(CNC(=O)Nc2ccc3[nH]ccc3c2)c1" .
Given back: < 4.52

Asked: Provide STING (Homo sapiens, UniProt Q86WV6, G230A/H232R/R293Q/R71H) pEC50 reading for "O=C(NCC1CCC1)Nc1ccc2cc[nH]c2c1" .
Given back: < 4.52

Asked: Provide STING (Homo sapiens, UniProt Q86WV6, G230A/H232R/R293Q/R71H) pEC50 reading for "O=C(NCCC1CC1)Nc1ccc2[nH]ccc2c1" .
Given back: < 4.52

Asked: Provide STING (Homo sapiens, UniProt Q86WV6, G230A/H232R/R293Q/R71H) pEC50 reading for "CCCCCCCCc1ccc(NC(=O)Nc2ccc3[nH]ccc3c2)cc1" .
Given back: < 4.52

Asked: Provide STING (Homo sapiens, UniProt Q86WV6, G230A/H232R/R293Q/R71H) pEC50 reading for "O=C(NCC1CCC1)Nc1ccc2[nH]ccc2c1" .
Given back: < 4.52

Asked: Provide STING (Homo sapiens, UniProt Q86WV6, G230A/H232R/R293Q/R71H) pEC50 reading for "COc1nc(Nc2ccc3cc[nH]c3c2)ccc1C#N" .
Given back: < 4.52

Asked: Provide STING (Homo sapiens, UniProt Q86WV6, G230A/H232R/R293Q/R71H) pEC50 reading for "c1cc2ccc(Nc3ccc(C4CC4)cn3)cc2[nH]1" .
Given back: < 4.52

Asked: Provide STING (Homo sapiens, UniProt Q86WV6, G230A/H232R/R293Q/R71H) pEC50 reading for "O=C(Nc1cccc(C(F)F)c1)Nc1ccc2[nH]ccc2c1" .
Given back: < 4.52

Asked: Provide STING (Homo sapiens, UniProt Q86WV6, G230A/H232R/R293Q/R71H) pEC50 reading for "O=C(Nc1ccc2[nH]ccc2c1)Nc1ccc2[nH]ccc2c1" .
Given back: < 4.52

Asked: Provide STING (Homo sapiens, UniProt Q86WV6, G230A/H232R/R293Q/R71H) pEC50 reading for "Cn1cc(NC(=O)Nc2ccc3[nH]ccc3c2)cn1" .
Given back: < 4.52

Asked: Provide STING (Homo sapiens, UniProt Q86WV6, G230A/H232R/R293Q/R71H) pEC50 reading for c1cc2ccc(Nc3ccc4c(cnn4C4CCCCO4)n3)cc2[nH]1 (centres unmarked) .
Given back: < 4.52

Asked: Provide STING (Homo sapiens, UniProt Q86WV6, G230A/H232R/R293Q/R71H) pEC50 reading for "CCNc1cccc(Nc2ccc3cc[nH]c3c2)n1" .
Given back: < 4.52
